Tested on: HIV-1 Env-pseudoviruses (30-strain panel)
assay-procedure: Neutralization assay, cross-clade 30-strain panel (Env-pseudoviruses, TZM-bl target cells)
Assay type: cell-based
condition-context: Geomean, 30-strain panel; read-out: Geometric mean IC50
endpoint-label: IC50

INPUT: Retrieve IC50 measured for COc1cnc(-n2cnc(C)n2)c2[nH]cc(C(=O)C(=O)N3CCN(C(=O)c4ccccc4)CC3)c12 and print it.
OUTPUT: ~40 nM

----------
Test system: HIV-1 Env-pseudoviruses (30-strain panel)
assay-procedure: Neutralization assay, cross-clade 30-strain panel (Env-pseudoviruses, TZM-bl target cells)
Format: cell-based
condition-context: Human immunodeficiency virus 1, TZM-bl, MB201.A1 (Clade A); read-out: IC50
Reported pIC50 values follow for various compounds
# pIC50 is unitless: minus log10 of the molar concentration; print number only

Examples from the recorded data:
structure-notation	endpoint-label	measurement
COc1cnc(-c2csc(C(=O)NCCO)n2)c2[nH]cc(C(=O)C(=O)N3CCC(=C(C#N)c4ccccc4)CC3)c12	pIC50	7.85
COc1cnc(-c2csc(CN(C)CCCN(C)C)n2)c2[nH]cc(C(=O)C(=O)N3CCC(=C(C#N)c4ccccc4)CC3)c12	pIC50	6.72

We next turn to a different compound, shown below.
INPUT: Give the reported pIC50 for this compound. COc1cnc(-n2cnc(C)n2)c2[nH]cc(C(=O)C(=O)N3CCN(C(=O)c4ccccc4)CC3)c12
OUTPUT: 6.32

Data origin: paper PMC6318274
